From: paper PMC5540273

System: ABL2
Details: concentration: 1 μM, replicates: in singlicate; n = 1
Param threshold (7%) applies to %Inh; output 1 (yes) when value >= threshold, 0 (no) when value < threshold.

Data request: Please check the record "O=C(Nc1ccccc1)Nc1cccc(Oc2ccc3nccn3n2)c1" and state if its %Inh is at or above 7%.
Data returned: 1 (yes)

Data request: Please check the record "CC(C)(C)c1ccc(C(=O)Nc2cn3cc(-c4cccnc4)ccc3n2)cc1" and state if its %Inh is at or above 7%.
Data returned: 1 (yes)

Data request: Please check the record CCCc1ccc(S(=O)(=O)NC2CCN(c3ccnc(Nc4ccc(F)cc4)n3)C2)cc1 (centres unmarked) and state if its %Inh is at or above 7%.
Data returned: 0 (no)

Data request: Please check the record "Cn1ccc2ncnc(Oc3ccc(NC(=O)Nc4ccccc4)cc3)c21" and state if its %Inh is at or above 7%.
Data returned: 0 (no)

Data request: Please check the record "Cc1ccc(NC(=O)Nc2cc(C(C)(C)C)nn2-c2ccccc2)cc1" and state if its %Inh is at or above 7%.
Data returned: 1 (yes)

Data request: Please check the record "O=C(Nc1n[nH]c2nc(-c3nccs3)c(Br)cc12)C1CCCC1" and state if its %Inh is at or above 7%.
Data returned: 1 (yes)

Data request: Please check the record "COc1ccccc1CNC(=O)c1cc(C(=O)c2ccccc2C)c[nH]1" and state if its %Inh is at or above 7%.
Data returned: 1 (yes)

Data request: Please check the record "CC(=O)Nc1nc2cnc(Nc3cc(NC(=O)c4cccc(CCC#N)c4)ccc3C)nc2s1" and state if its %Inh is at or above 7%.
Data returned: 1 (yes)

Data request: Please check the record COc1ccc(CNC(=O)NC2CCN(c3ccnc(Nc4cc(OC)c(OC)c(OC)c4)n3)C2)cc1 (centres unmarked) and state if its %Inh is at or above 7%.
Data returned: 0 (no)

Data request: Please check the record COc1cc2ncn(-c3cc(OCC4CCCO4)c(C(N)=O)s3)c2cc1OC (centres unmarked) and state if its %Inh is at or above 7%.
Data returned: 0 (no)

Data request: Please check the record "Cc1cccc(-c2cc(Nc3ccncc3)c3ccccc3n2)n1" and state if its %Inh is at or above 7%.
Data returned: 0 (no)

Data request: Please check the record "Cn1ccc2ncnc(Oc3cccc(C(=O)Nc4ccccc4)c3)c21" and state if its %Inh is at or above 7%.
Data returned: 0 (no)

Data request: Please check the record "CS(=O)(=O)c1ccc(-c2nc3n(c2-c2ccncc2)CCC3)cc1" and state if its %Inh is at or above 7%.
Data returned: 1 (yes)

Data request: Please check the record "Cc1ccccc1-n1cnc2c(N)ncnc21" and state if its %Inh is at or above 7%.
Data returned: 0 (no)

Data request: Please check the record "Cc1ccc(-c2cc(-c3c[nH]nc3-c3ccccn3)ccn2)cc1" and state if its %Inh is at or above 7%.
Data returned: 0 (no)

Data request: Please check the record "Cc1ccc(C(=O)Nc2ccc(Nc3ccnc4cc(-c5ccccn5)ccc34)cc2O)cc1.Cl" and state if its %Inh is at or above 7%.
Data returned: 1 (yes)

Data request: Please check the record "Cc1c(O)cccc1Nc1ccnc2ccc(C(F)(F)F)cc12.Cl" and state if its %Inh is at or above 7%.
Data returned: 1 (yes)

Data request: Please check the record "COC(=O)c1c(-c2ccccc2)c2cc(OC)ccc2c(=O)n1Cc1ccccc1" and state if its %Inh is at or above 7%.
Data returned: 1 (yes)

Data request: Please check the record "Fc1cc(Cl)ccc1Nc1ccnc2cc(I)ccc12" and state if its %Inh is at or above 7%.
Data returned: 1 (yes)

Data request: Please check the record "Cc1cc(-c2ccc3c(c2)CC[C@@H](N[C@@H](C)c2ccccc2)C3)cnc1N.Cl" and state if its %Inh is at or above 7%.
Data returned: 0 (no)

Data request: Please check the record "CCn1c(-c2ccccn2)nc2cnccc21" and state if its %Inh is at or above 7%.
Data returned: 0 (no)

Data request: Please check the record "Clc1cc(Cl)cc(Nc2ccnc(Nc3cc(Cl)cc(Cl)c3)n2)c1" and state if its %Inh is at or above 7%.
Data returned: 1 (yes)

Data request: Please check the record "Cn1cncc1-c1ccc2ncnc(Nc3ccc(OCc4ccccc4)cc3)c2c1" and state if its %Inh is at or above 7%.
Data returned: 1 (yes)

Data request: Please check the record "COc1ccc(Nc2nccc(-c3cccc(NC(=O)c4cc5cc(F)ccc5[nH]4)c3)n2)cc1" and state if its %Inh is at or above 7%.
Data returned: 1 (yes)

Data request: Please check the record COc1cc(Nc2nccc(N3CCC(NC(=O)Nc4cc(C)ccc4C)C3)n2)cc(OC)c1OC (centres unmarked) and state if its %Inh is at or above 7%.
Data returned: 1 (yes)

Data request: Please check the record COc1cccc(NC(=O)NC2CCN(c3ccnc(Nc4ccc(F)cc4)n3)C2)c1 (centres unmarked) and state if its %Inh is at or above 7%.
Data returned: 0 (no)

Data request: Please check the record "Cc1cc(N2Cc3ccccc3C2)nc(Nc2ccc(S(=O)(=O)N3CCOCC3)cc2)n1.Cl" and state if its %Inh is at or above 7%.
Data returned: 0 (no)

Data request: Please check the record "Nc1nc(-c2nccs2)c(-c2ccnc3ccccc23)s1" and state if its %Inh is at or above 7%.
Data returned: 1 (yes)

Data request: Please check the record "COc1ccc(C2=C(Nc3cccc(C(=O)O)c3)C(=O)NC2=O)cc1" and state if its %Inh is at or above 7%.
Data returned: 0 (no)

Data request: Please check the record "Cc1c(Cn2ccn3c(=O)cc(N4CCOCC4)nc23)cccc1C(F)(F)F" and state if its %Inh is at or above 7%.
Data returned: 0 (no)

Data request: Please check the record "COc1ccc(Nc2nccc(NCCNC(=O)Nc3ccccc3F)n2)cc1" and state if its %Inh is at or above 7%.
Data returned: 0 (no)

Data request: Please check the record "CCn1c(-c2cccnc2O)nc2cnccc21" and state if its %Inh is at or above 7%.
Data returned: 0 (no)

Data request: Please check the record "NC(=O)c1nnc2ccccc2c1N" and state if its %Inh is at or above 7%.
Data returned: 1 (yes)

Data request: Please check the record "COc1cc2nccc(Nc3ccc(NC(=O)c4ccc(C)cc4)c(O)c3)c2cc1OC.Cl" and state if its %Inh is at or above 7%.
Data returned: 1 (yes)

Data request: Please check the record CC1=C(C(=O)Nc2cc3cn[nH]c3cc2F)C(c2ccc(C(F)(F)F)cc2)CC(=O)N1 (centres unmarked) and state if its %Inh is at or above 7%.
Data returned: 1 (yes)

---

value.type: Kd

Data request: # value lookup — system SRPK1, readout Kd, item COc1cccc(-c2cc(-c3c[nH]nc3-c3ccccn3)ccn2)c1 [GW680338];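 note: kd values determined as follow-up on hits from a single-replicate KINOMEscan panel screen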
Data returned: > 10 µM

---

Test system: TSSK1B
Conditions: concentration: 1 μM, replicates: in singlicate; n = 1
Param threshold (8%) applies to %Inh; output yes when value >= threshold, no when value < threshold.

Data request: Please check the record CN(C)CCN(C)C(=O)c1cc(-c2ccncc2)c(-c2ccc(Cl)c(O)c2)o1.Cl.Cl [SB-710397] and state if its %Inh is at or above 8%.
Data returned: yes

Data request: Please check the record Cc1cc(N2Cc3ccccc3C2)nc(Nc2ccc(S(=O)(=O)N3CCOCC3)cc2)n1.Cl [GSK1669917] and state if its %Inh is at or above 8%.
Data returned: no

Data request: Please check the record CCn1c(-c2cccnc2O)nc2cnccc21 [SB-736715] and state if its %Inh is at or above 8%.
Data returned: no

Data request: Please check the record "Cn1ccc2ncnc(Oc3cccc(C(=O)Nc4ccccc4)c3)c21" and state if its %Inh is at or above 8%.
Data returned: yes

Data request: Please check the record CCn1c(-c2ccccn2)nc2cnccc21 [SB-736398] and state if its %Inh is at or above 8%.
Data returned: no

Data request: Please check the record CS(=O)(=O)c1ccc(-c2nc3n(c2-c2ccncc2)CCC3)cc1 [SKF-105942] and state if its %Inh is at or above 8%.
Data returned: yes

Data request: Please check the record Cc1cccc(-c2nc(Nc3ccc4[nH]ncc4c3)c3ccccc3n2)n1 [GW857175] and state if its %Inh is at or above 8%.
Data returned: yes

Data request: Please check the record COc1ccccc1CNC(=O)c1cc(C(=O)c2ccccc2C)c[nH]1 [GSK364507] and state if its %Inh is at or above 8%.
Data returned: yes

Data request: Please check the record CCCc1ccc(S(=O)(=O)NC2CCN(c3ccnc(Nc4ccc(F)cc4)n3)C2)cc1 (centres unmarked) [GSK1379715] and state if its %Inh is at or above 8%.
Data returned: yes

Data request: Please check the record Cc1ccccc1-n1cnc2c(N)ncnc21 [SKF-97510] and state if its %Inh is at or above 8%.
Data returned: no

Data request: Please check the record COc1cccc(-c2cc(-c3c[nH]nc3-c3ccccn3)ccn2)c1 [GW680338] and state if its %Inh is at or above 8%.
Data returned: no

Data request: Please check the record COc1cc2ncn(-c3cc(OCC4CCCO4)c(C(N)=O)s3)c2cc1OC (centres unmarked) [GSK204607] and state if its %Inh is at or above 8%.
Data returned: no

Data request: Please check the record Cc1ccc(C(=O)Nc2ccc(Nc3ccnc4cc(-c5ccccn5)ccc34)cc2O)cc1.Cl [GW440146] and state if its %Inh is at or above 8%.
Data returned: yes

Data request: Please check the record "O=C(Nc1ccccc1)Nc1cccc(Oc2ccc3nccn3n2)c1" and state if its %Inh is at or above 8%.
Data returned: no

Data request: Please check the record "O=C(O)COc1ncnc2cc(-c3ccc4[nH]ncc4c3)sc12" and state if its %Inh is at or above 8%.
Data returned: no

Data request: Please check the record COc1cc(Nc2nccc(N3CCC(NC(=O)Nc4cc(C)ccc4C)C3)n2)cc(OC)c1OC (centres unmarked) [GSK1379762] and state if its %Inh is at or above 8%.
Data returned: no
